- Tested on: Alternaria solani
- ASSAY_DETAILS: Test B: tomato seedlings sprayed, next day inoculated with Alternaria solani (tomato early blight), visual disease rating
- Type: in vivo
- MEASUREMENT_SETUP: Alternaria solani, 40 ppm test suspension (*), sprayed day before inoculation
VALUE_TYPE: pest or weed control at 40 ppm
Answer format reminder: number followed by unit.

molecule="COc1cc(OC)cc(-c2c(C(C)(C)O)nnc(C)c2-c2c(F)cc(F)cc2F)c1 [Compound 21]" observed_measurement=99%
molecule="COc1cc(OC)cc(-c2c(C)nnc(C)c2-c2c(F)cc(OC)cc2F)c1 [Compound 11]" observed_measurement=100%
molecule="COc1cc(OC)cc(-c2c(C)nnc(Cl)c2-c2c(F)cc(OC)cc2F)c1 [Compound 10]" observed_measurement=100%
molecule="COc1cc(OC)cc(-c2c(C)nnc(Cl)c2-c2c(F)cccc2F)c1 [Compound 24]" observed_measurement=26%

Challenge: Give reported pest or weed control at 40 ppm value for COc1cc(OC)cc(-c2c(C(C)=O)nnc(C)c2-c2c(F)cc(F)cc2F)c1 [Compound 20]
Response given: 26%

Challenge: Give a short answer stating reported pest or weed control at 40 ppm for COc1cc(OC)cc(-c2c(C)nnc(Cl)c2-c2c(F)cc(F)cc2F)c1 [Compound 8] .
Response given: 100%

Challenge: Consider the molecule COc1cc(OC)cc(-c2c(CCl)nnc(Cl)c2-c2c(F)cccc2F)c1 [Compound 26] . State its measured pest or weed control at 40 ppm.
Response given: 0%

Challenge: Name the recorded pest or weed control at 40 ppm of the molecule listed here: COc1cc(OC)c(Cl)c(-c2c(C)nnc(Cl)c2-c2c(F)cc(F)cc2F)c1 [Compound 23]
Response given: 100%

Challenge: Please indicate pest or weed control at 40 ppm recorded for COc1cc(OC)cc(-c2c(Cl)nnc(C)c2-c2c(F)cc(F)cc2F)c1 [Compound 12]
Response given: 100%

Challenge: Return pest or weed control at 40 ppm for the following molecule: COc1cc(OC)cc(-c2c(C)nnc(C)c2-c2c(F)cc(F)cc2F)c1 [Compound 9]
Response given: 99%

###

- System: Septoria nodorum
- ASSAY_DETAILS: Test C: wheat seedlings sprayed, next day inoculated with Septoria nodorum (wheat glume blotch), visual disease rating
- Assay type: in vivo
- MEASUREMENT_SETUP: Parastagonospora nodorum, 40 ppm test suspension (*), sprayed day before inoculation
VALUE_TYPE: pest or weed control at 40 ppm
The answer consists of two parts: a number and, after it, its unit.

Answered examples (5):
smiles_representation=COc1cc(OC)cc(-c2c(C(C)(C)O)nnc(C)c2-c2c(F)cc(F)cc2F)c1 value_type="pest or weed control at 40 ppm" observed_measurement=40%
smiles_representation=COc1cc(OC)cc(-c2c(C)nnc(C)c2-c2c(F)cc(OC)cc2F)c1 value_type="pest or weed control at 40 ppm" observed_measurement=99%
smiles_representation=COc1cc(OC)cc(-c2c(C)nnc(Cl)c2-c2c(F)cc(OC)cc2F)c1 value_type="pest or weed control at 40 ppm" observed_measurement=98%
smiles_representation=COc1cc(OC)c(Cl)c(-c2c(C)nnc(Cl)c2-c2c(F)cc(F)cc2F)c1 value_type="pest or weed control at 40 ppm" observed_measurement=100%
smiles_representation=COc1cc(OC)cc(-c2c(C)nnc(Cl)c2-c2c(F)cc(F)cc2F)c1 value_type="pest or weed control at 40 ppm" observed_measurement=100%

Challenge: Specify pest or weed control at 40 ppm for COc1cc(OC)cc(-c2c(CCl)nnc(Cl)c2-c2c(F)cccc2F)c1 and stop.
Response given: 0%

Challenge: Given COc1cc(OC)cc(-c2c(C(C)=O)nnc(C)c2-c2c(F)cc(F)cc2F)c1 , respond with its pest or weed control at 40 ppm.
Response given: 0%

Challenge: Quick one: give measured pest or weed control at 40 ppm for COc1cc(OC)cc(-c2c(Cl)nnc(C)c2-c2c(F)cc(F)cc2F)c1
Response given: 99%

Challenge: Given the compound COc1cc(OC)cc(-c2c(C)nnc(Cl)c2-c2c(F)cccc2F)c1 , write its reported pest or weed control at 40 ppm.
Response given: 55%

Challenge: Specify measured pest or weed control at 40 ppm for COc1cc(OC)cc(-c2c(C)nnc(C)c2-c2c(F)cc(F)cc2F)c1 .
Response given: 100%
